// data source = patent EP0626016B1

- tested_system: HRP Type VIA (Armoracia rusticana)
- cond: 0.01 mg/ml, 10µl test compound; control value in brackets not reported
Reported (d) Signal: Background: ratio (control = with no enhancer) values for a set of molecules

molecule: O=C(O)c1ccc(N=Nc2ccc(O)c(B(O)O)c2)cc1
result: 5.0

molecule: c1ccc(B2OCCCO2)cc1
result: 2.2

molecule: CCCCOB(OCCCC)c1ccc(-c2ccc(Br)cc2)cc1
result: 442.2

molecule: CC(C)COB(c1ccccc1)c1ccccc1
result: 3.2 (2.0)

molecule: Clc1ccc(OB(Oc2ccc(Cl)cc2)c2ccc(Cl)cc2)cc1
result: 6.3 (1.9)

molecule: OB(O)c1ccc(B(O)O)cc1
result: 2.1 (2.0)

molecule: OB(O)c1ccc2cc(O)ccc2c1 [Compound 1006, 6-hydroxy-2-naphthaleneboronic acid]
result: 5.8

molecule: O=C(CCl)Nc1cccc(B(O)O)c1
result: 2.1 (2.0)

molecule: O=C(O)c1ccc(B(O)O)cc1[N+](=O)[O-]
result: 2.2 (2.0)

molecule: OB(O)c1cc(Cl)cc(Cl)c1
result: 2.1 (2.0)

Turning now to a further molecule:
Req: Query: (d) Signal: Background: ratio (control = with no enhancer); subject: `OB(O)c1ccc(Nc2ccc(Cl)cc2)cc1`
Resp: 4.1 (1.8)

====

- tested_system: HRP Type VIA (Armoracia rusticana, UniProt P00433)
- cond: 0.01 mg/ml, 10µl test compound
property: (b) Increase in signal (with HRP, with test cpd.)

Consider the reported (b) Increase in signal (with HRP, with test cpd.) for these compounds:
compound: OB(O)c1cc(N=Nc2cccc(C(F)(F)F)c2)ccc1O
result: Y
//
compound: OB(O)c1cccc2c1oc1ccccc12
result: N
//
compound: OB(O)c1cc(Cl)cc(Cl)c1
result: N
//
compound: OB(O)c1cc(Cl)ccc1Cl
result: N
//
compound: OB(O)c1ccc(Cl)c(Cl)c1
result: N
//
compound: OB(O)c1ccccc1Cl
result: N

Req: For HRP Type VIA (Armoracia rusticana, UniProt P00433), provide (b) Increase in signal (with HRP, with test cpd.) of `CSCc1ccccc1B(O)O` please.
Resp: N

Req: And then `c1ccc2c(OB(Oc3cccc4ccccc34)c3cccc4ccccc34)cccc2c1` , what is it?
Resp: N

Req: # repeat for OCC(CO)(CO)COB(O)O [Compound 1017, pentaerythritol borate]
Resp: N

Req: Same question, `O=C(O)c1ccc(B(O)O)cc1[N+](=O)[O-]` this time
Resp: N

Req: Do the same for `c1ccc(B2OCCCO2)cc1` please
Resp: Y

Req: What do you have for CCC(C)CNc1cccc(B(O)O)c1 (centres unmarked) ?
Resp: N

Req: // same read-out, input: `O=[N+]([O-])c1cc(B(O)O)ccc1Cl`
Resp: Y

Req: Entry to check: `CCCCOB(OCCCC)c1ccc(-c2ccc(Br)cc2)cc1`
Resp: Y Y

Req: Entry to check: `BrCc1ccccc1OB(Oc1ccccc1CBr)c1ccccc1CBr`
Resp: N

Req: Same read-out for `Cc1ccc(B(O)O)cc1` ?
Resp: N

Req: Likewise for `OB(O)c1cccc(Cl)c1Cl` ?
Resp: N

====

- tested_system: HRP Type VIA (Armoracia rusticana)
- cond: 1 mg/ml, 10µl test compound
property: (b) Increase in signal (with HRP, with test cpd.)

Take a look at these entries with their results.
chemical_smiles: OB(O)c1cccc2c1Sc1ccccc1S2
tested_system: HRP Type VIA (Armoracia rusticana)
result: N
//
chemical_smiles: O=C(CCl)Nc1cccc(B(O)O)c1
tested_system: HRP Type VIA (Armoracia rusticana)
result: N
//
chemical_smiles: CCCCOB(OCCCC)c1ccc(-c2ccc(Br)cc2)cc1
tested_system: HRP Type VIA (Armoracia rusticana)
result: Y
//
chemical_smiles: OB(O)c1c(Cl)cc(Cl)cc1Cl
tested_system: HRP Type VIA (Armoracia rusticana)
result: N
//
chemical_smiles: O=[N+]([O-])c1cc(B(O)O)ccc1Cl
tested_system: HRP Type VIA (Armoracia rusticana)
result: Y

Here is another compound to look at.
Req: Param item = `Cc1ccc(B(O)O)cc1` ; retrieve measured (b) Increase in signal (with HRP, with test cpd.).
Resp: N

====

// reported (d) Signal: Background: ratio (control = with no enhancer) per item
- tested_system: HRP Type VIA (Armoracia rusticana)
- Sequence (P00433 31-338): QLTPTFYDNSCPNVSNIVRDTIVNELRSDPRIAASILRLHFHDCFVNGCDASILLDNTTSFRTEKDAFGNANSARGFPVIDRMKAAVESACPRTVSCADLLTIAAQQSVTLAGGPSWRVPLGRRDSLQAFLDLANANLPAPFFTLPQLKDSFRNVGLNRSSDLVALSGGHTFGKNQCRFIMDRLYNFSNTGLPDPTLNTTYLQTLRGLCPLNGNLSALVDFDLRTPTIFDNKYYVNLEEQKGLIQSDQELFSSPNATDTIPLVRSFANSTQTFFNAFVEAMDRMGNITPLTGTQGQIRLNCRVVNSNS
- cond: 1 mg/ml, 10µl test compound; control value in brackets not reported

compound: Nc1c(Cl)cc(Cl)c(B(O)O)c1Cl
result: 40.5 (4.5)
--
compound: CCCCOB(OCCCC)c1ccc(-c2ccc(Br)cc2)cc1
result: 903.8 (4.5)

Lab note: next compound to report on.
Req: Short answer please: (d) Signal: Background: ratio (control = with no enhancer), HRP Type VIA (Armoracia rusticana), entry OB(O)c1ccc2cc(O)ccc2c1 [Compound 1006, 6-hydroxy-2-naphthaleneboronic acid]
Resp: 0.3 (1.8)

====

Listed next: entries and their corresponding (d) Signal: Background: ratio (control = with no enhancer).
- tested_system: UniProtKB P00433
- cond: 1 mg/ml, 10µl test compound; control value in brackets not reported

Some solved entries appear below for comparison.
molecule: OB(O)c1cccc2c1Sc1ccccc1S2
result: 1.8 (2.1)
//
molecule: OB(O)c1cccc2c1oc1ccccc12
result: 1.3 (2.5)
//
molecule: O=C(O)c1ccc(N=Nc2ccc(O)c(B(O)O)c2)cc1
result: 4.2 (1.9)
//
molecule: OCC(CO)(CO)COB(O)O [Compound 1017, pentaerythritol borate]
result: 1.8 (1.8)

Req: Please look up its (d) Signal: Background: ratio (control = with no enhancer): `OB(O)c1ccc(Cl)c(Cl)c1`
Resp: 7.6 (4.5)

====

Attribute: (d) Signal: Background: ratio (control = with no enhancer)
- tested_system: UniProtKB P00433
- cond: 0.1 mg/ml, 10µl test compound; control value in brackets not reported

Guide cases for (d) Signal: Background: ratio (control = with no enhancer), answers given:
molecule: OB(O)c1ccc2cc(O)ccc2c1 [Compound 1006, 6-hydroxy-2-naphthaleneboronic acid]
result: 1.5
//
molecule: O=C(CCl)Nc1cccc(B(O)O)c1
result: 3.3 (2.9)
//
molecule: OB(O)c1cc(Cl)ccc1Cl
result: 3.1 (2.7)
//
molecule: Cc1ccc(B(O)O)cc1
result: 41.2 (2.9)
//
molecule: BrCc1ccccc1OB(Oc1ccccc1CBr)c1ccccc1CBr
result: 3.2 (2.9)

Req: Would you mind telling me what (d) Signal: Background: ratio (control = with no enhancer) value was observed for `OB(O)c1ccc(Nc2ccc(Cl)cc2)cc1` ?
Resp: 67.7 (2.8)

Req: // query: `O=C(O)c1ccc(N=Nc2ccc(O)c(B(O)O)c2)cc1`
Resp: 24.5

Req: What about this molecule? `Cc1ccccc1B(O)O`
Resp: 2.5

====

- tested_system: HRP Type VIA (Armoracia rusticana, UniProt P00433)
- cond: 0.01 mg/ml, 10µl test compound
property: (b) Increase in signal (with HRP, with test cpd.)

Consider the worked cases shown below.
compound: OB(O)c1c(Cl)cc(Cl)cc1Cl [Compound 1020, 2,4,6-trichlorophenylboronic acid]
result: N
//
compound: CC(C)COB(c1ccccc1)c1ccccc1 [Compound 1019, diphenylisobutoxyborane]
result: N
//
compound: Nc1c(Cl)cc(Cl)c(B(O)O)c1Cl [Compound 1026]
result: N
//
compound: Clc1ccc(OB(Oc2ccc(Cl)cc2)c2ccc(Cl)cc2)cc1 [Compound 1041]
result: Y
//
compound: OB(O)c1ccc(B(O)O)cc1 [Compound 1035, 1,4-phenyldiboronic acid]
result: N

Req: Name the reported (b) Increase in signal (with HRP, with test cpd.) value associated with the compound OB(O)c1ccc(Nc2ccc(Cl)cc2)cc1 [Compound 1033, 4-(4'-chloroanilino)phenylboronic acid]
Resp: Y

Req: Same read-out for OB(O)c1ccc(Oc2ccccc2)cc1 [Compound 1010, 4-(phenoxy)benzeneboronic acid] ?
Resp: N

Req: Also need COc1ccc(Br)cc1B(O)O [Compound 1003, 5-bromo-2-methoxybenzeneboronic acid] , thanks.
Resp: N

====

- tested_system: HRP Type VIA (Armoracia rusticana, UniProt P00433)
- Sequence (P00433 31-338): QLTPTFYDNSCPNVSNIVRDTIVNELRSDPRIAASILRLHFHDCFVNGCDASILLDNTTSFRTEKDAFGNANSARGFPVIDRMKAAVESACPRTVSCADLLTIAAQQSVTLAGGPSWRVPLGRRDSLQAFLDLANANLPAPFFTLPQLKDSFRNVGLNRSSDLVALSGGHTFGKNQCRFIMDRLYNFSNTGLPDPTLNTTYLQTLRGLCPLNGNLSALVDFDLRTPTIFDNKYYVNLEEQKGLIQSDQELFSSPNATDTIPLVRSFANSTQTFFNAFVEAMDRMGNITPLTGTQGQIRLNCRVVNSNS
- cond: 0.1 mg/ml, 10µl test compound
property: (b) Increase in signal (with HRP, with test cpd.)

Examples with answers:
compound: OB(O)c1ccc2cc(O)ccc2c1 [Compound 1006, 6-hydroxy-2-naphthaleneboronic acid]
result: N

compound: COc1ccc(Br)cc1B(O)O
result: N

compound: OB(O)c1ccccc1-c1ccccc1
result: N

compound: CCCCOB(OCCCC)c1ccc(Br)cc1
result: Y

compound: OB(O)c1cc(Cl)ccc1Cl
result: N

Req: Data request, read-out (b) Increase in signal (with HRP, with test cpd.), for `OB(O)c1cccc2ccccc12`
Resp: N

Req: Further, for `Cc1ccc(B(O)O)cc1` ?
Resp: Y

Req: Next record, please: `OB(O)c1ccc(Nc2ccc(Cl)cc2)cc1`
Resp: Y
